protocolNotes: chemical genetic growth profiling, strain panel (AID 1159580);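 also: tested at 20 µM; growth read once vehicle control cultures reached saturation at 30 °C; lower values mean less growth of the strain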
experimentalConditions: S. cerevisiae deletion strains, growth OD, locus YOR136W, strain idh2
Screen size: about 5,500 compounds; about 2,000 (36%) were called active. Another 18% or so got no clear call; they are omitted. Rule as the data show it: active = normalized growth mostly below about 0.91 (no sharp cut-off); inconclusive = no clear call, values can overlap the other calls; inactive = mostly above about 0.92. Some of the results follow.
Classes used: active, inactive

compound: CC[C@@]1(O)C(=O)OCc2c1cc1n(c2=O)Cc2cc3ccccc3nc2-1
assignedLabel: active
--
compound: NCC(O)CC(=O)O (centres undefined)
assignedLabel: inactive
--
compound: CC(=O)N1CCN(c2ccc(OCC3CO[C@](Cn4ccnc4)(c4ccc(Cl)cc4Cl)O3)cc2)CC1 (some centres undefined)
assignedLabel: active
--
compound: CC1=CC(=O)C2C(C)(C)CCC[C@]2(C)[C@@]1(O)CCc1ccoc1 (some centres undefined)
assignedLabel: inactive
--
compound: CSCCC(N)C(=O)NC(CC(C)C)C(=O)NC(Cc1ccccc1)C(=O)O (centres undefined)
assignedLabel: inactive
--
compound: CC[C@@]1(O)C(=O)OCc2c1cc1n(c2=O)Cc2cc3cc(O)ccc3nc2-1
assignedLabel: inactive
--
compound: C/C=C(\C)C(=O)O[C@@H]1c2c(ccc3ccc(=O)oc23)OC(C)(C)[C@@H]1OC(C)=O
assignedLabel: inactive
--
compound: C/C=C(/C)C(=O)O[C@@H]1Cc2c(ccc3ccc(=O)oc23)OC1(C)C
assignedLabel: inactive
--
compound: CCn1nc(C(=O)O)c(=O)c2cc3c(cc21)OCO3
assignedLabel: inactive
